Numbers sourced from paper PMC9632963.

experiment: Phase I trial: clinical pharmacokinetics in plasma; format: in vivo, human; conditions: human, plasma, oral, 60 mg, Multiple doses day 28, 60 mg, n=3, Median (Min, Max); read-out: Tmax
Attribute Measured: Tmax (h)
Numeric only. Scale: h

Look up and report measured Tmax for this entry: Cc1c(C(=O)Nc2ccc(Oc3ccnc4cc(OCC(C)(C)O)ccc34)c(F)c2)c(=O)n(-c2ccccc2)n1C [CT053PTSA]
2

====

Experiment: Phase I trial: clinical pharmacokinetics in plasma
Assay type: in vivo, human
Details: human, plasma, oral, 15 mg, Single dose day 1, 15 mg, n=1; read-out: Vz/F
Description: A clinical pharmacokinetic study of CT053PTSA was performed for both single doses and multiple doses. […] Statistical analysis of CT053-treated tumors versus vehicle-treated tumors or versus nontreated tumors was performed by repeated-measures ANOVA. The data from the tumor xenograft models were expressed as the means ± standard error of the mean (SEM) and were plotted as a function of time. […]
Attribute Measured: Vd/F

Look up and report measured Vd/F for this entry: Cc1c(C(=O)Nc2ccc(Oc3ccnc4cc(OCC(C)(C)O)ccc34)c(F)c2)c(=O)n(-c2ccccc2)n1C
110 L

====

assay: Phase I trial: clinical pharmacokinetics in plasma; type: in vivo, human; settings: human, plasma, oral, 150 mg, Multiple doses day 28, 150 mg, n=1
Attribute Measured: Cmax (ng/mL)
Numeric only. Scale: ng/mL

Look up and report measured Cmax for this entry: Cc1c(C(=O)Nc2ccc(Oc3ccnc4cc(OCC(C)(C)O)ccc34)c(F)c2)c(=O)n(-c2ccccc2)n1C
2930

====

experiment: Phase I trial: clinical pharmacokinetics in plasma; assay type: in vivo, human; conditions: human, plasma, po, multiple oral doses; read-out: mean half-life, range over cohorts
Attribute Measured: half-life

Look up and report measured half-life for this entry: Cc1c(C(=O)Nc2ccc(Oc3ccnc4cc(OCC(C)(C)O)ccc34)c(F)c2)c(=O)n(-c2ccccc2)n1C
13.8 to 38.4 h

====

Test: Phase I trial: clinical pharmacokinetics in plasma
Type: in vivo, human
Conditions: human, plasma, oral, 30 mg, Multiple doses day 28, 30 mg, n=1; read-out: Vz/F
Procedure: A clinical pharmacokinetic study of CT053PTSA was performed for both single doses and multiple doses. […] Statistical analysis of CT053-treated tumors versus vehicle-treated tumors or versus nontreated tumors was performed by repeated-measures ANOVA. The data from the tumor xenograft models were expressed as the means ± standard error of the mean (SEM) and were plotted as a function of time. […]
Attribute Measured: Vd/F (L)
Numeric only. Scale: L

Look up and report measured Vd/F for this entry: Cc1c(C(=O)Nc2ccc(Oc3ccnc4cc(OCC(C)(C)O)ccc34)c(F)c2)c(=O)n(-c2ccccc2)n1C
60.2

====

molecular target: RET (Homo sapiens)
Sequence (P07949 29-1114): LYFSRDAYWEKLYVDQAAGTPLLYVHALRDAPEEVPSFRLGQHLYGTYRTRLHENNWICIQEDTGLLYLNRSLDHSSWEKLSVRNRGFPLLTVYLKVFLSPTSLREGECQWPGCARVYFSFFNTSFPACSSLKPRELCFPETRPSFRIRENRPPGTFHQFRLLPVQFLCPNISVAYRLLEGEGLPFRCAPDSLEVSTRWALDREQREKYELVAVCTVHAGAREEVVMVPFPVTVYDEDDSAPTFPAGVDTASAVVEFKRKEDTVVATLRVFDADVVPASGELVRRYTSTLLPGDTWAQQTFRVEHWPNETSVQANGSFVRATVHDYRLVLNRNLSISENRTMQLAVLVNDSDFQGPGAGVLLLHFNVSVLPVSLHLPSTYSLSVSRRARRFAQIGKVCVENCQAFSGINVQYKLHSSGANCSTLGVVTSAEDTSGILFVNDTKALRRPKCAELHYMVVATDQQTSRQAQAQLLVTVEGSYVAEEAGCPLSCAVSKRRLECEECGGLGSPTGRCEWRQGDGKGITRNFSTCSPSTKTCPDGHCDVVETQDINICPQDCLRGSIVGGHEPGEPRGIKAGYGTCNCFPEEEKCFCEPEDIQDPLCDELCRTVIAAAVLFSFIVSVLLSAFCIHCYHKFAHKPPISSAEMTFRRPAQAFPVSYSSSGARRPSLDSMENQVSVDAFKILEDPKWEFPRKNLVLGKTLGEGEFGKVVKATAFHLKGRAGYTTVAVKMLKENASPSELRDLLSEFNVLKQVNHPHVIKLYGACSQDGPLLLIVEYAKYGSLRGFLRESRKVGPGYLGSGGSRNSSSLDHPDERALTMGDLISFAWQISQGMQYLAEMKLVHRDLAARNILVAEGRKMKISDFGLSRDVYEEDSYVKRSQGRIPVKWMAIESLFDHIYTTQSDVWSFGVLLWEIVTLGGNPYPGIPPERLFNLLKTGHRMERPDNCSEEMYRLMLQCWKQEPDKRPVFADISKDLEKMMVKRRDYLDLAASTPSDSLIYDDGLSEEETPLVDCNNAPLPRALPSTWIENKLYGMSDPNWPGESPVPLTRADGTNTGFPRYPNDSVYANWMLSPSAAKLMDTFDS
Attribute Measured: pIC50
// field semantics: pIC50 = negative decimal log of concentration (mol/L)

Please respond with reported pIC50 (system RET (Homo sapiens)) for Cc1c(C(=O)Nc2ccc(Oc3ccnc4cc(OCC(C)(C)O)ccc34)c(F)c2)c(=O)n(-c2ccccc2)n1C [CT053] .
6.70

====

experiment: Phase I trial: clinical pharmacokinetics in plasma; type: in vivo, human; settings: human, plasma, oral, 150 mg, Multiple doses day 28, 150 mg, n=1; read-out: Vz/F
Attribute Measured: Vd/F (L)
Numeric only. Scale: L

Look up and report measured Vd/F for this entry: Cc1c(C(=O)Nc2ccc(Oc3ccnc4cc(OCC(C)(C)O)ccc34)c(F)c2)c(=O)n(-c2ccccc2)n1C [CT053PTSA]
88.7

====

experiment: Phase I trial: clinical pharmacokinetics in plasma; type: in vivo, human; conditions: human, plasma, oral, 150 mg, Multiple doses day 28, 150 mg, n=1
Attribute Measured: AUC(0-inf) (ng·h/mL)
Numeric only. Scale: ng·h/mL

Look up and report measured AUC(0-inf) for this entry: Cc1c(C(=O)Nc2ccc(Oc3ccnc4cc(OCC(C)(C)O)ccc34)c(F)c2)c(=O)n(-c2ccccc2)n1C [CT053PTSA]
50600

====

target: PDGFRα (Homo sapiens, UniProt P16234)
Sequence (P16234 24-1089): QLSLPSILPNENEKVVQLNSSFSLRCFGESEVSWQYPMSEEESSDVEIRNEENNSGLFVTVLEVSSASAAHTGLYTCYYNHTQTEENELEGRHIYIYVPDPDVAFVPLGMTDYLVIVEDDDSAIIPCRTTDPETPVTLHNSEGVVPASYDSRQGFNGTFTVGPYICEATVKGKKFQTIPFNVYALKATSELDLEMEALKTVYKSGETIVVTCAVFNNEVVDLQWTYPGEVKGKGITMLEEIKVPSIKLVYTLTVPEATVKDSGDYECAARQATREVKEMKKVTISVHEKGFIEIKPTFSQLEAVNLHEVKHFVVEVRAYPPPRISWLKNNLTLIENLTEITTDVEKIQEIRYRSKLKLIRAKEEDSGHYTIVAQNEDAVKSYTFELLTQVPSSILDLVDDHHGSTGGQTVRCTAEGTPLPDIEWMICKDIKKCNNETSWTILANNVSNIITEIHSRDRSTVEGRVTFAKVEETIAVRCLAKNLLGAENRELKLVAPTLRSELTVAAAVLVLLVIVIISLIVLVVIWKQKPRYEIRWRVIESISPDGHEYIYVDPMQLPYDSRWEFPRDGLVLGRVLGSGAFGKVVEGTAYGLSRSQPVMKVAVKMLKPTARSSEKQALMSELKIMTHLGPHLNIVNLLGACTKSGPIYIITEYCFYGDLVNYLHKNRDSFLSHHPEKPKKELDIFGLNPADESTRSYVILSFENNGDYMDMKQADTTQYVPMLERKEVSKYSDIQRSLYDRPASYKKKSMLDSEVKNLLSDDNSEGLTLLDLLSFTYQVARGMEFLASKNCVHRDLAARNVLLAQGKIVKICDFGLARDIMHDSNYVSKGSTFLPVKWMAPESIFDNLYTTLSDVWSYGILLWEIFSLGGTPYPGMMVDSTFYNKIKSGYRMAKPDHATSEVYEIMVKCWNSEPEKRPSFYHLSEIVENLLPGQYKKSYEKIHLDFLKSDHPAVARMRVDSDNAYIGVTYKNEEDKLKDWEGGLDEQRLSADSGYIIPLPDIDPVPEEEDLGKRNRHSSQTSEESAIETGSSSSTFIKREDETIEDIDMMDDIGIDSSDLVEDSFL
Attribute Measured: pIC50
// field semantics: pIC50 = negative decimal log of concentration (mol/L)

Please respond with reported pIC50 (system PDGFRα (Homo sapiens, UniProt P16234)) for Cc1c(C(=O)Nc2ccc(Oc3ccnc4cc(OCC(C)(C)O)ccc34)c(F)c2)c(=O)n(-c2ccccc2)n1C .
6.41

====

assay: Phase I trial: clinical pharmacokinetics in plasma; assay type: in vivo, human; conditions: human, plasma, oral, 15 mg, Single dose day 1, 15 mg, n=1; read-out: T1/2 (converted)
Attribute Measured: half-life (h)
Numeric only. Scale: h

Look up and report measured half-life for this entry: Cc1c(C(=O)Nc2ccc(Oc3ccnc4cc(OCC(C)(C)O)ccc34)c(F)c2)c(=O)n(-c2ccccc2)n1C
31.4

====

assay: Phase I trial: clinical pharmacokinetics in plasma; type: in vivo, human; conditions: human, plasma, oral, 15 mg, Multiple doses day 28, 15 mg, n=1; read-out: T1/2 (converted)
Attribute Measured: half-life (h)
Numeric only. Scale: h

Look up and report measured half-life for this entry: Cc1c(C(=O)Nc2ccc(Oc3ccnc4cc(OCC(C)(C)O)ccc34)c(F)c2)c(=O)n(-c2ccccc2)n1C
27.9

====

biological target: RON (Homo sapiens, UniProt Q04912)
Sequence (Q04912 25-1400): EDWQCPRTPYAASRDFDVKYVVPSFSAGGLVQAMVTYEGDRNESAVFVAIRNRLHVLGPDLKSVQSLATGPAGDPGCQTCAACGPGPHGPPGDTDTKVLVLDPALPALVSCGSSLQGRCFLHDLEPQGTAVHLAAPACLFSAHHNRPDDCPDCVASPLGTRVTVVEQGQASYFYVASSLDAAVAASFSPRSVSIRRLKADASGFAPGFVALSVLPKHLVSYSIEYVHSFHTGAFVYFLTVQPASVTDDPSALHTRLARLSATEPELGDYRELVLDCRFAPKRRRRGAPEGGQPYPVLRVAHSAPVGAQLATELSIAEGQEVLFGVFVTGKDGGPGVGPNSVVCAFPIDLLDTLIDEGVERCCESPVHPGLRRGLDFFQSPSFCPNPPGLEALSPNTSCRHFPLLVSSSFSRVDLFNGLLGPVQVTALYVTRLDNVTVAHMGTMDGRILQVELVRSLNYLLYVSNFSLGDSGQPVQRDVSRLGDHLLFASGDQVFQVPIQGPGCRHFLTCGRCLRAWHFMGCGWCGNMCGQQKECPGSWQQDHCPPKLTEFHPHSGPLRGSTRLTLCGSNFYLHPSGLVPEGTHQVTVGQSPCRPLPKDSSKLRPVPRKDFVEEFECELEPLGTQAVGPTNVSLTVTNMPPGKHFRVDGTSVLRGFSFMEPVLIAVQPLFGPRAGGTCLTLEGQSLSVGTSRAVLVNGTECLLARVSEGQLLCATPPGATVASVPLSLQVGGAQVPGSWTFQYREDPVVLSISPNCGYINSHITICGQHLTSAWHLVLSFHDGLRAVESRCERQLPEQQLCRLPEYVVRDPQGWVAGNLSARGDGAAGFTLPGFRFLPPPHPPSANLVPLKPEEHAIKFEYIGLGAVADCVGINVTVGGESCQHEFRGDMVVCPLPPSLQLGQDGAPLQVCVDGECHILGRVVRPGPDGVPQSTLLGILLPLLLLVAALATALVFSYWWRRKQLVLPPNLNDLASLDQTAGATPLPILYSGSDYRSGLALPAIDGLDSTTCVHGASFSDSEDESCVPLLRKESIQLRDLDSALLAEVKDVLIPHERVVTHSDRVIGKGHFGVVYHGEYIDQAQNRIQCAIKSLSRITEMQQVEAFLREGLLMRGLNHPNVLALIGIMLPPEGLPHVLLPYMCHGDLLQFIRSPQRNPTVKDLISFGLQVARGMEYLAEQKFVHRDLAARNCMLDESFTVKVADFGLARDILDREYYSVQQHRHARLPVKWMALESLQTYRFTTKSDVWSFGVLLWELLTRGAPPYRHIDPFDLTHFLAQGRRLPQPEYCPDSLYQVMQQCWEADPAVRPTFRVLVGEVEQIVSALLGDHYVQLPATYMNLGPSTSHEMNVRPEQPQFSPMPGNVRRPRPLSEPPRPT
Attribute Measured: IC50
Respond with the figure and its unit, in that order.

Please respond with reported IC50 (system RON (Homo sapiens, UniProt Q04912)) for Cc1c(C(=O)Nc2ccc(Oc3ccnc4cc(OCC(C)(C)O)ccc34)c(F)c2)c(=O)n(-c2ccccc2)n1C .
160 nM

====

assay: Phase I trial: clinical pharmacokinetics in plasma; assay type: in vivo, human; details: human, plasma, oral, 30 mg, Multiple doses day 28, 30 mg, n=1
Attribute Measured: Cmax
Respond with the figure and its unit, in that order.

Look up and report measured Cmax for this entry: Cc1c(C(=O)Nc2ccc(Oc3ccnc4cc(OCC(C)(C)O)ccc34)c(F)c2)c(=O)n(-c2ccccc2)n1C [CT053PTSA]
1790 ng/mL

====

test: Phase I trial: clinical pharmacokinetics in plasma; type: in vivo, human; settings: human, plasma, po, single dose, oral; read-out: median Tmax
Attribute Measured: Tmax

Look up and report measured Tmax for this entry: Cc1c(C(=O)Nc2ccc(Oc3ccnc4cc(OCC(C)(C)O)ccc34)c(F)c2)c(=O)n(-c2ccccc2)n1C [CT053PTSA]
2 to 3 h

====

assay: Phase I trial: clinical pharmacokinetics in plasma; type: in vivo, human; details: human, plasma, oral, 30 mg, Single dose day 1, 30 mg, n=1; read-out: Tmax
Attribute Measured: Tmax (h)
Numeric only. Scale: h

Look up and report measured Tmax for this entry: Cc1c(C(=O)Nc2ccc(Oc3ccnc4cc(OCC(C)(C)O)ccc34)c(F)c2)c(=O)n(-c2ccccc2)n1C [CT053PTSA]
3

====

test: Phase I trial: clinical pharmacokinetics in plasma; format: in vivo, human; settings: human, plasma, oral, 15 mg, Single dose day 1, 15 mg, n=1; read-out: AUC0-τ
Attribute Measured: AUC

Look up and report measured AUC for this entry: Cc1c(C(=O)Nc2ccc(Oc3ccnc4cc(OCC(C)(C)O)ccc34)c(F)c2)c(=O)n(-c2ccccc2)n1C
3760 ng·h/mL

====

Target protein (sequence): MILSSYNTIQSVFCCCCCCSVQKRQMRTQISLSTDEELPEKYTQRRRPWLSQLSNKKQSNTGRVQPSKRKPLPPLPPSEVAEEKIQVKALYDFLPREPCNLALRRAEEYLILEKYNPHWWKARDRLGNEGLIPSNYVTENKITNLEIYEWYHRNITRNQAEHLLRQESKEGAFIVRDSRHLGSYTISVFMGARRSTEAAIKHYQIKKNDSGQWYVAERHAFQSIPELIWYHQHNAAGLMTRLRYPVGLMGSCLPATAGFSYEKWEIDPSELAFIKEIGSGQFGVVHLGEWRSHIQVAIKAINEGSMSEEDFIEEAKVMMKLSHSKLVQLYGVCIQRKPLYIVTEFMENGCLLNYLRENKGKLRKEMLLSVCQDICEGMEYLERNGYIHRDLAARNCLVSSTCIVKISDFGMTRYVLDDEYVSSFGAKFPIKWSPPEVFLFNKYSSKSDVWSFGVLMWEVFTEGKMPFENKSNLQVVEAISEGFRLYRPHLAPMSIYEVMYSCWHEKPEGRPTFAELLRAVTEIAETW
Attribute Measured: pIC50
// field semantics: pIC50 = negative decimal log of concentration (mol/L)

Look up and report measured pIC50 for this entry: Cc1c(C(=O)Nc2ccc(Oc3ccnc4cc(OCC(C)(C)O)ccc34)c(F)c2)c(=O)n(-c2ccccc2)n1C
6.57

====

Experiment: Phase I trial: clinical pharmacokinetics in plasma
Format: in vivo, human
Conditions: human, plasma, oral, 100 mg, Multiple doses day 28, 100 mg, n=5, Median (Min, Max); read-out: Tmax
Method: A clinical pharmacokinetic study of CT053PTSA was performed for both single doses and multiple doses. […] Statistical analysis of CT053-treated tumors versus vehicle-treated tumors or versus nontreated tumors was performed by repeated-measures ANOVA. The data from the tumor xenograft models were expressed as the means ± standard error of the mean (SEM) and were plotted as a function of time. […]
Attribute Measured: Tmax (h)
Numeric only. Scale: h

Look up and report measured Tmax for this entry: Cc1c(C(=O)Nc2ccc(Oc3ccnc4cc(OCC(C)(C)O)ccc34)c(F)c2)c(=O)n(-c2ccccc2)n1C [CT053PTSA]
2
